Each item that follows carries a reported melting point.

For orientation, consider the following solved cases.
molecule	result
O=c1[nH]ncc(Cl)c1NCCCN1CCC(c2noc3cc(F)ccc23)CC1 [Example 3]	198 to 200 °C
O=c1[nH]ncc(NCCN2CCC(c3noc4cc(F)ccc34)CC2)c1Cl [Example 8]	229 to 231 °C
Cn1ncc(NCCCN2CCC(c3noc4cc(F)ccc34)CC2)cc1=O [Example 7]	163 to 165 °C

Shift focus to the following entry.
Request the reported melting point associated with Cn1ncc(Cl)c(NCCCN2CCC(c3noc4cc(F)ccc34)CC2)c1=O [Example 2]
117 to 119 °C

###

Each item that follows carries a reported MED in mg/kg po..
# System: male Wistar rats
# assay-summary: Cataleptogenous effect (method of Morpurgo)
# Format: in vivo, rat
# conditions-used: rats, po., minimum effective dosis inducing catalepsy
A number alone suffices; assume mg/kg.

For orientation, consider the following solved cases.
molecule	units-of-measure	MED in mg/kg po.
Cn1ncc(NCCCN2CCC(c3noc4cc(F)ccc34)CC2)c(Cl)c1=O	mg/kg	10
O=C(CCCN1CCC(O)(c2ccc(Cl)cc2)CC1)c1ccc(F)cc1 [haloperidol, reference compound]	mg/kg	1

Shift focus to the following entry.
Request the reported MED in mg/kg po. associated with Cn1ncc(NCCN2CCC(c3noc4cc(F)ccc34)CC2)c(Cl)c1=O
3
